# credit: PubChem BioAssay (EPA / NIEHS)

Molecular target: human Peroxisome Proliferator-activated Receptor delta (PPARd), PPARD (gene 5467) (UniProt Q03181)
Sequence (Q03181 whole entry, looked up): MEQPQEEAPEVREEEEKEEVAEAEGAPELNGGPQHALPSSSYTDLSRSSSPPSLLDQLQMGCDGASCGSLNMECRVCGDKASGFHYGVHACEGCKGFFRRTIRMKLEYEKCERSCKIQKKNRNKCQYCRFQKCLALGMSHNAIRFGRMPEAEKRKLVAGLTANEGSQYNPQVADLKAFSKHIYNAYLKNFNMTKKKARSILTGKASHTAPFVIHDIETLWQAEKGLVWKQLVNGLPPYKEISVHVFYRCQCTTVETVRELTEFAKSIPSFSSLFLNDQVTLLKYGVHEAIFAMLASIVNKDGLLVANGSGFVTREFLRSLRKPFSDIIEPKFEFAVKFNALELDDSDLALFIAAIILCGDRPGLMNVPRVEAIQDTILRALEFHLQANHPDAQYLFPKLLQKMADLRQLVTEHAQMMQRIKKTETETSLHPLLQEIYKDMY
Assay: ATG_PPARd_TRANS: Attagene TRANS-FACTORIAL HepG2 Assay for human Peroxisome Proliferator-activated Receptor delta (PPARd) (AID 2283002)
Records with an inconclusive call do not appear. The source made the active and inactive calls. How the source made its calls: active means hit-call score of the fitted dose curve at least 0.9, where 1 is the maximum; inconclusive means response in the unintended direction; inactive means score below 0.9.

>  <Compound>
CCC(C)N(C)C(=O)c1cc2ccccc2c(-c2ccccc2Cl)n1 (stereo unspecified)

>  <outcome>
inactive

$$$$
>  <Compound>
CC(=O)[C@@]1(O)CC[C@H]2[C@@H]3CCC4=CC(=O)CC[C@]4(C)[C@H]3CC[C@@]21C

>  <outcome>
inactive

$$$$
>  <Compound>
CC(=O)OCC(COC(C)=O)OC(C)=O

>  <outcome>
inactive

$$$$
>  <Compound>
CC(C)c1cccc(C(C)C)c1

>  <outcome>
inactive

$$$$
>  <Compound>
O=C(N[C@@H](c1ccccc1)[C@@H]1CCCCN1)c1cccc(C(F)(F)F)c1Cl

>  <outcome>
inactive

$$$$
>  <Compound>
COC(=O)CCCC(=O)OC

>  <outcome>
inactive

$$$$

---

Read-out: Cytochrome P450 (CYP2B6), CYP2B6 (gene 1555)
Experiment: LTEA_HepaRG_CYP2B6: Life Technologies and Expression Analysis (LTEA) Assay for Cytochrome P450 (CYP2B6) using HepaRG (AID 2283481)
Conditions: mRNA level, 48 h; actives raise or lower the signal
Active and inactive are the calls of the source. How the source made its calls: active means hit-call score of the fitted dose curve at least 0.9, where 1 is the maximum; inactive means score below 0.9.
Attribute measured: AC50

>  <Smi>
c1ccc2occc2c1

>  <Result>
5.44 µM (active)

$$$$
>  <Smi>
Cc1ccc(C(C)(C)C)c(O)c1

>  <Result>
inactive

$$$$
>  <Smi>
COc1ccc(OC(F)(F)F)cc1CN[C@H]1CCCN[C@H]1c1ccccc1

>  <Result>
86.1 µM (active)

$$$$
>  <Smi>
Cc1cn([C@H]2C=C[C@@H](CO)O2)c(=O)[nH]c1=O

>  <Result>
10.3 µM (active)

$$$$
>  <Smi>
Nc1nc(Cl)nc2c1ncn2[C@H]1C[C@H](O)[C@@H](CO)O1

>  <Result>
1.22 µM (active)

$$$$
>  <Smi>
COc1ccc(C(=O)Nc2nc3ccccc3c(NCc3ccccc3)c2C#N)cc1

>  <Result>
inactive

$$$$

---

Read-out: Insulin Like Growth Factor 1 (IGF1), IGF1 (gene 3479)
Test: LTEA_HepaRG_IGF1: Life Technologies and Expression Analysis (LTEA) Assay for Insulin Like Growth Factor 1 (IGF1) using HepaRG (AID 2283506)
Conditions: mRNA level, 48 h; actives raise or lower the signal
Calls of active or inactive are those of the source. How the source made its calls: active means hit-call score of the fitted dose curve at least 0.9, where 1 is the maximum; inactive means score below 0.9.
Outcomes: 1 (yes) = active, 0 (no) = inactive

>  <Smi>
CCc1cc(C2=C(C(=O)O)N(c3ccccc3C(F)(F)F)S(=O)(=O)c3ccccc32)cc2c1OCO2

>  <Label>
0 (no)

$$$$
>  <Smi>
CN(C)C(=O)NC1(c2ccccc2)CCN(CCC[C@]2(c3ccc(Cl)c(Cl)c3)CCCN(C(=O)c3ccccc3)C2)CC1

>  <Label>
1 (yes)

$$$$
>  <Smi>
Cc1occc(=O)c1O

>  <Label>
0 (no)

$$$$
>  <Smi>
CC(C)(C)c1ccccc1

>  <Label>
0 (no)

$$$$
>  <Smi>
COC(=O)[C@H]1[C@H]2C[C@@H]3c4[nH]c5cc(OC)ccc5c4CCN3C[C@H]2C[C@@H](OC(=O)c2cc(OC)c(OC)c(OC)c2)[C@@H]1OC

>  <Label>
1 (yes)

$$$$
>  <Smi>
CN(C)CCCN1c2ccccc2Sc2ccc(Cl)cc21

>  <Label>
1 (yes)

$$$$
>  <Smi>
OCC(O)CO

>  <Label>
0 (no)

$$$$
>  <Smi>
Cn1cnc2c1c(=O)[nH]c(=O)n2C

>  <Label>
0 (no)

$$$$
>  <Smi>
Cc1cc(Cc2ccc(N)c(C)c2)ccc1N

>  <Label>
0 (no)

$$$$
>  <Smi>
C=CCCCCCCCCCCCC

>  <Label>
0 (no)

$$$$
>  <Smi>
CC(C)c1cccc(C(C)C)c1NC(=O)NS(=O)(=O)c1cc(C(C)(C)O)co1

>  <Label>
1 (yes)

$$$$

---

Molecular target: human Caspase 5 (CASP5), CASP5 (gene 838)
Experiment: NVS_ENZ_hCASP5: NovaScreen (NVS) Enzymatic Assay for human Caspase 5 (CASP5) (AID 2283137)
Inconclusive results are not listed. The source made the active and inactive calls. Rule for the calls: active = hit-call score of the fitted dose curve at least 0.9, where 1 is the maximum; inconclusive = response in the unintended direction; inactive = score below 0.9.
Outcomes: YES for active, NO for inactive

>  <Compound>
O=C1c2c(O)cccc2Cc2cccc(O)c21

>  <Label>
YES

$$$$
>  <Compound>
CCCCCCC(CCCCCCCCCCC(=O)OCC(COC(C)=O)OC(C)=O)OC(C)=O (centres undefined)

>  <Label>
YES

$$$$
>  <Compound>
CCCCCCCCCCCCCCOS(=O)(=O)O

>  <Label>
YES

$$$$
>  <Compound>
O=Cc1ccccc1C=O

>  <Label>
NO

$$$$

---

Target: Hepatocyte nuclear factor 6 (Homo sapiens)
Assay: ATG_HNF6_CIS: Attagene CIS-FACTORIAL HepG2 Assay for human Hepatocyte Nuclear Factor 6 (HNF6) (AID 2282952)
Conditions: HepG2 Attagene cis-factorial HNF6 reporter transcription; actives raise or lower the signal
The source made the active and inactive calls. How the source made its calls: active means hit-call score of the fitted dose curve at least 0.9, where 1 is the maximum; inactive means score below 0.9.
Attribute measured: AC50

>  <Compound>
CC(=O)CC(c1ccccc1)c1c(O)c2ccccc2oc1=O (configuration not stated)

>  <Target entity>
Hepatocyte nuclear factor 6 (Homo sapiens)

>  <Result>
inactive

$$$$
>  <Compound>
CN(C)CCCN1c2ccccc2Sc2ccc(Cl)cc21

>  <Target entity>
Hepatocyte nuclear factor 6 (Homo sapiens)

>  <Result>
20.8 µM (active)

$$$$
>  <Compound>
CC(=O)O

>  <Target entity>
Hepatocyte nuclear factor 6 (Homo sapiens)

>  <Result>
inactive

$$$$
>  <Compound>
N[C@@H](Cc1c[nH]c2ccccc12)C(=O)O

>  <Target entity>
Hepatocyte nuclear factor 6 (Homo sapiens)

>  <Result>
inactive

$$$$
>  <Compound>
C#CC(O)C(CC)CCCC (configuration not stated)

>  <Target entity>
Hepatocyte nuclear factor 6 (Homo sapiens)

>  <Result>
144 µM (active)

$$$$
>  <Compound>
CCc1cc(C2=C(C(=O)O)N(c3ccccc3C(F)(F)F)S(=O)(=O)c3ccccc32)cc2c1OCO2

>  <Target entity>
Hepatocyte nuclear factor 6 (Homo sapiens)

>  <Result>
inactive

$$$$
>  <Compound>
COC(=O)CCC(=O)OC

>  <Target entity>
Hepatocyte nuclear factor 6 (Homo sapiens)

>  <Result>
inactive

$$$$

---

Read-out: CD40, CD40 (gene 958)
Assay: BSK_SAg_CD40: BioMAP Diversity Plus: SAg Assay for CD40 Biomarker Activity (AID 2283088)
Conditions: primary human HUVEC with PBMC; actives raise or lower the signal
The source made the active and inactive calls. The calls were made as follows: active = hit-call score of the fitted dose curve at least 0.9, where 1 is the maximum; inactive = score below 0.9.
Outcomes: active, inactive

>  <Smi>
NC1CCCCC1

>  <Label>
inactive

$$$$
>  <Smi>
CCCC(=O)O

>  <Label>
inactive

$$$$
>  <Smi>
CC(=O)O

>  <Label>
inactive

$$$$
>  <Smi>
O=C(N[C@@H](c1ccccc1)[C@@H]1CCCCN1)c1cccc(C(F)(F)F)c1Cl

>  <Label>
active

$$$$
>  <Smi>
CC(C)COC(=O)CCCCC(=O)OCC(C)C

>  <Label>
inactive

$$$$
>  <Smi>
COc1ccc(C(=O)Nc2nc3ccccc3c(NCc3ccccc3)c2C#N)cc1

>  <Label>
inactive

$$$$
>  <Smi>
CCCCc1nc2cccnc2n1Cc1ccc(-c2ccccc2-c2nnn[nH]2)cc1

>  <Label>
inactive

$$$$

---

Read-out: MYC, MYC (gene 4609)
Test: LTEA_HepaRG_MYC: Life Technologies and Expression Analysis (LTEA) Assay for MYC using HepaRG (AID 2283518)
Settings: mRNA level, 48 h; actives raise or lower the signal
Calls of active or inactive are those of the source. Rule for the calls: active = hit-call score of the fitted dose curve at least 0.9, where 1 is the maximum; inactive = score below 0.9.

>  <Molecule>
O=C(O)c1cccnc1

>  <AC50>
inactive

$$$$
>  <Molecule>
CN(C)CCCN(C)CCCN(C)C

>  <AC50>
inactive

$$$$
>  <Molecule>
C#CC(O)C(CC)CCCC (stereo not drawn)

>  <AC50>
inactive

$$$$
>  <Molecule>
Nc1nc(=S)c2[nH]cnc2[nH]1

>  <AC50>
11.4 µM (active)

$$$$
>  <Molecule>
CCCCCCC(CCCCCCCCCCC(=O)OCC(COC(C)=O)OC(C)=O)OC(C)=O (stereo not drawn)

>  <AC50>
inactive

$$$$
>  <Molecule>
OCC(CO)n1cnc(-c2ccc(F)cc2)c1-c1ccnc(Oc2ccccc2)n1

>  <AC50>
inactive

$$$$
>  <Molecule>
CC1(C)C(=O)NC(=O)N1CO

>  <AC50>
inactive

$$$$
>  <Molecule>
CC(=O)O[C@]1(C(C)=O)CC[C@H]2[C@@H]3C=C(Cl)C4=CC(=O)[C@@H]5C[C@@H]5[C@]4(C)[C@H]3CC[C@@]21C

>  <AC50>
9.92 µM (active)

$$$$
>  <Molecule>
CC(C)COC(=O)CCCCC(=O)OCC(C)C

>  <AC50>
inactive

$$$$
>  <Molecule>
CCCCC(CC)COP(=O)(OCC(CC)CCCC)OCC(CC)CCCC (stereo not drawn)

>  <AC50>
inactive

$$$$
>  <Molecule>
CCCCCCCC(=O)OC

>  <AC50>
inactive

$$$$
>  <Molecule>
S=c1[nH]c2ccccc2s1

>  <AC50>
inactive

$$$$
>  <Molecule>
O=C1OC(c2ccc(O)cc2)(c2ccc(O)cc2)c2ccccc21

>  <AC50>
inactive

$$$$
